Target: T1, human Kv1.3 (huKv1.3) (Homo sapiens, UniProt P22001)
T1 construct: host or cells: CHO
T1 sequence (P22001 whole entry): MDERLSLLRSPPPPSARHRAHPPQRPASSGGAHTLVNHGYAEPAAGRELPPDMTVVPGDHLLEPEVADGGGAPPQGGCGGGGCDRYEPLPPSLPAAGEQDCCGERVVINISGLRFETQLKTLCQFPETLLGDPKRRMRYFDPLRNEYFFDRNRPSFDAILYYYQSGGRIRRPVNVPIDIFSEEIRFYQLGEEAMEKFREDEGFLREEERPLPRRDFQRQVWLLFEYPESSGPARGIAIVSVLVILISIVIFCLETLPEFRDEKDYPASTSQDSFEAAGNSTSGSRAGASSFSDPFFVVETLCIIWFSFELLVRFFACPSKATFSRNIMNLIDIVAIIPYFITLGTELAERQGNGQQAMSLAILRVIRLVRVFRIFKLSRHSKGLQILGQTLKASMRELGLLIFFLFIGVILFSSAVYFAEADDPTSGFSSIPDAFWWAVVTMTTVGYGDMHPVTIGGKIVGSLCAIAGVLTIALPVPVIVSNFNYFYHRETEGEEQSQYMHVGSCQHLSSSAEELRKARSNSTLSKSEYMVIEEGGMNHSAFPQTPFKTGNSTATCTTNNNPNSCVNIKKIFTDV
Assay: QPatch automated patch-clamp, CHO cells stably expressing human Kv1.3 (Examples 19-21)
Assay type: cell-based
Conditions: Kv1.1 IC50 over Kv1.3 IC50, Table E20
readout_type: Fold difference
Enter a number only.

Lookup: Looking for the measured Fold difference of KB_A12_Vm24: Vm24 in VL CDR2 of KB_A12, IgG (antibody, V domains shown) VH: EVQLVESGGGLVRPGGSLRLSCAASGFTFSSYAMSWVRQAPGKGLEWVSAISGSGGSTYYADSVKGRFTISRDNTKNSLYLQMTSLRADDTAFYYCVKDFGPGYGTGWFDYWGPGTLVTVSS VL: QSVLTQPPSVSEAPRQRVTITCSGSSSNIGNNAVNWYQQLPGKAPKLLIYAAGRAAAISCVGSPECPPKCRAQGCKNGKCMNRKCKCYYCANSGVSDRFSAAKSGTSASLAINGLRSEDEADYYCAAWDDSLNGYVFGTGTKLTVLG , can you help?
Found: 102

Lookup: Looking for the measured Fold difference of KB_A12_Odk2 short: truncated OdK2 in VL CDR2 of KB_A12, IgG (antibody, V domains shown) VH: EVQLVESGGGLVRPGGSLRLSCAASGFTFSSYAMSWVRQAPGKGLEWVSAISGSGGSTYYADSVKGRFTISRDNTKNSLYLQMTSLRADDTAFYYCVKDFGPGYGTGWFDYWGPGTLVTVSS VL: QSVLTQPPSVSEAPRQRVTITCSGSSSNIGNNAVNWYQQLPGKAPKLLIYAAGRVKCRGSPQCIQPCKDAGMRFGKCMNGKCHCTPKANSGVSDRFSAAKSGTSASLAINGLRSEDEADYYCAAWDDSLNGYVFGTGTKLTVLG , can you help?
Found: 8

Lookup: Looking for the measured Fold difference of KB_A12_AnTx 2 M: AnTx N17A/F32T in VL CDR2 of KB_A12, IgG (antibody, V domains shown) VH: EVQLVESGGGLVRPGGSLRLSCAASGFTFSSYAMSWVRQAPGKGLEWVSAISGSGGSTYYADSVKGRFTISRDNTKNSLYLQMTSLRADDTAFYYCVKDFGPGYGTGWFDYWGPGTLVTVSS VL: QSVLTQPPSVSEAPRQRVTITCSGSSSNIGNNAVNWYQQLPGKAPKLLIYAAGRQKECTGPQHCTNFCRKAKCTHGKCMNRKCKCTNCKANSGVSDRFSAAKSGTSASLAINGLRSEDEADYYCAAWDDSLNGYVFGTGTKLTVLG , can you help?
Found: 94

Lookup: Looking for the measured Fold difference of KB_A12_HsTx1 (antibody, V domains shown) VH: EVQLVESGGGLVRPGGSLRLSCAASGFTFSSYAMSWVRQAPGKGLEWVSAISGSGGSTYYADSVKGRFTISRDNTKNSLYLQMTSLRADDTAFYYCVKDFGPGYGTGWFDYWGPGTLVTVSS VL: QSVLTQPPSVSEAPRQRVTITCSGSSSNIGNNAVNWYQQLPGKAPKLLIYAAGRASCRTPKDCADPCRKETGCPYGKCMNRKCKCNRCANSGVSDRFSAAKSGTSASLAINGLRSEDEADYYCAAWDDSLNGYVFGTGTKLTVLG , can you help?
Found: 43

Lookup: Looking for the measured Fold difference of KB_A12_ADWX1 short: truncated ADWX-1 in VL CDR2 of KB_A12, IgG (antibody, V domains shown) VH: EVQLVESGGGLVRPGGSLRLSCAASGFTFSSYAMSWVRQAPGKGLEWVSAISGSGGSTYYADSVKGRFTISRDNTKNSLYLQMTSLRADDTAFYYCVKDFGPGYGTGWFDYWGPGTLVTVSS VL: QSVLTQPPSVSEAPRQRVTITCSGSSSNIGNNAVNWYQQLPGKAPKLLIYAAGRVKCKHSRQCLKPCKDAGMRFGKCTNGKCHCTPKANSGVSDRFSAAKSGTSASLAINGLRSEDEADYYCAAWDDSLNGYVFGTGTKLTVLG , can you help?
Found: 6

Lookup: Looking for the measured Fold difference of KB_A12_ShK: ShK toxin in VL CDR2 of KB_A12, IgG1 (antibody, V domains shown) VH: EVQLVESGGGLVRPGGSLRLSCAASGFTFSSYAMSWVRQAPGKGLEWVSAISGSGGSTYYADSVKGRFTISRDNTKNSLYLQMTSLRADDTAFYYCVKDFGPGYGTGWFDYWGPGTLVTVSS VL: QSVLTQPPSVSEAPRQRVTITCSGSSSNIGNNAVNWYQQLPGKAPKLLIYAAGRRSCIDTIPKSRCTAFQCKHSMKYRLSFCRKTCGTCANSGVSDRFSAAKSGTSASLAINGLRSEDEADYYCAAWDDSLNGYVFGTGTKLTVLG , can you help?
Found: 3

Lookup: Looking for the measured Fold difference of KB_A12_KTX: kaliotoxin in VL CDR2 of KB_A12, IgG1 (antibody) VH: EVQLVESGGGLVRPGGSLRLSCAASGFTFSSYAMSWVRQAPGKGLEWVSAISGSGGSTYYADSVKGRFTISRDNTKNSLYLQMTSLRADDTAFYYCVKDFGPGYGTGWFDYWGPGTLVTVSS VL: QSVLTQPPSVSEAPRQRVTITCSGSSSNIGNNAVNWYQQLPGKAPKLLIYAAGRGVEINVKCSGSPQCLKPCKDAGMRFGKCMNRKCHCTPKANSGVSDRFSAAKSGTSASLAINGLRSEDEADYYCAAWDDSLNGYVFGTGTKLTVLGQP , can you help?
Found: 3

Lookup: Looking for the measured Fold difference of KB_A12_Odk2: OdK2 in VL CDR2 of KB_A12, IgG (antibody, V domains shown) VH: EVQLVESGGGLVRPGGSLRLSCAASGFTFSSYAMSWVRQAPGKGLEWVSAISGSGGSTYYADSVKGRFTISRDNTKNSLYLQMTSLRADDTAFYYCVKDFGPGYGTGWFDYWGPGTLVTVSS VL: QSVLTQPPSVSEAPRQRVTITCSGSSSNIGNNAVNWYQQLPGKAPKLLIYAAGRGVPTDVKCRGSPQCIQPCKDAGMRFGKCMNGKCHCTPKANSGVSDRFSAAKSGTSASLAINGLRSEDEADYYCAAWDDSLNGYVFGTGTKLTVLG , can you help?
Found: 6
